- targetSystem: Endothelin-1 receptor (Homo sapiens)
- Sequence (P25101 whole entry): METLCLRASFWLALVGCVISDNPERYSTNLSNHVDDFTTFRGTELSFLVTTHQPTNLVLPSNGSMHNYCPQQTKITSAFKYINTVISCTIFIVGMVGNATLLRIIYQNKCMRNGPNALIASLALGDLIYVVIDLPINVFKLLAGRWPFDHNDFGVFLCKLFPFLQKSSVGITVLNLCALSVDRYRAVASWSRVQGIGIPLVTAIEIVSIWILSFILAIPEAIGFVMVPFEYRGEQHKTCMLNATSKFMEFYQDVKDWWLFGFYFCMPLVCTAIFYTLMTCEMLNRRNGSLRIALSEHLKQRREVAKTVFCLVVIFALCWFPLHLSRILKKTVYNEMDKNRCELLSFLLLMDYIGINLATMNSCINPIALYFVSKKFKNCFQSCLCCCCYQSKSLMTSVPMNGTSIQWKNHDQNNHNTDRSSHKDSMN
parameterMeasured: IC50 (nM)

Worked cases, IC50 given:
Problem: Please look at this compound and report its IC50: `Cc1noc(NS(=O)(=O)c2sccc2Oc2ccccc2)c1Br`
Solution: 1450

Problem: Specify measured IC50 for `Cc1noc(NS(=O)(=O)c2ccccc2)c1Br` .
Solution: 2510

P: Cc1noc(NS(=O)(=O)c2cccs2)c1Br
Q: CCCc1ccc(-c2ccsc2S(=O)(=O)Nc2onc(C)c2Br)c(C)c1
R: Cc1cc(CCC(C)C)ccc1-c1ccsc1S(=O)(=O)Nc1onc(C)c1Br
S: Cc1noc(NS(=O)(=O)c2ccccc2-c2ccccc2)c1Br
Problem: Arrange by IC50, high to low. # the answer lists labels in the order requested
Solution: P, R, Q, S

---

- targetSystem: Endothelin receptor type B (Homo sapiens, UniProt P24530)
- methodNotes: Compound was tested for binding affinity against Endothelin B receptor
parameterMeasured: IC50 (µM)

A: Cc1cc(CC(C)C)ccc1-c1ccsc1S(=O)(=O)Nc1onc(C)c1Br
B: Cc1noc(NS(=O)(=O)c2sccc2-c2ccc(CC(C)C)cc2)c1Br
Problem: # return whichever of A and B has the smaller IC50 Your answer should be the label attached to the chosen record.
Solution: A
(A: 1.51 µM, B: 2.9 µM)

---

Target sequence: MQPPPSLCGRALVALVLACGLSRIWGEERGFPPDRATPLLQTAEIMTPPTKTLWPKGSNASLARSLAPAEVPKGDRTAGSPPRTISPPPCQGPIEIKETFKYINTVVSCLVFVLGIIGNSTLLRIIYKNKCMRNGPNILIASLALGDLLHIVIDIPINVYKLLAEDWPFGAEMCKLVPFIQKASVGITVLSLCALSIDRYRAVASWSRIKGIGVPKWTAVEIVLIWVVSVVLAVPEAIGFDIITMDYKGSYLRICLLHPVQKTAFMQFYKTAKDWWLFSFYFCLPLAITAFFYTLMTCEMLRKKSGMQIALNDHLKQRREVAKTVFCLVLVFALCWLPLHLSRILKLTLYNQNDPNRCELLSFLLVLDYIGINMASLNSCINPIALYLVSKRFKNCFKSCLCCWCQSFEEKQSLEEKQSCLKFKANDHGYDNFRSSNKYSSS
parameterMeasured: IC50 (µM)

Here is how some compounds turned out for IC50.
Problem: Dear colleague, please send me the reported IC50 for `COc1ccc(-c2ccsc2S(=O)(=O)Nc2onc(C)c2Br)cc1` when you can.
Solution: 62.1

Problem: For the compound `Cc1noc(NS(=O)(=O)c2sccc2Oc2ccccc2)c1Br` , give its measured IC50 value.
Solution: 35.5

Problem: Fill in IC50 for record `CCCc1ccc(-c2ccsc2S(=O)(=O)Nc2onc(C)c2Br)c(C)c1`
Solution: 2.91

A: Cc1noc(NS(=O)(=O)c2sccc2Cc2ccccc2)c1Br
B: Cc1noc(NS(=O)(=O)c2sccc2-c2ccccc2)c1Br
C: Cc1cc(CCC(C)C)ccc1-c1ccsc1S(=O)(=O)Nc1onc(C)c1Br
Problem: Rank the 3 compounds: largest IC50 first, smallest last. List the labels according to the requested ordering.
Solution: B, A, C

---

- targetSystem: Endothelin receptor type B (Homo sapiens)
- Sequence (P24530 whole entry): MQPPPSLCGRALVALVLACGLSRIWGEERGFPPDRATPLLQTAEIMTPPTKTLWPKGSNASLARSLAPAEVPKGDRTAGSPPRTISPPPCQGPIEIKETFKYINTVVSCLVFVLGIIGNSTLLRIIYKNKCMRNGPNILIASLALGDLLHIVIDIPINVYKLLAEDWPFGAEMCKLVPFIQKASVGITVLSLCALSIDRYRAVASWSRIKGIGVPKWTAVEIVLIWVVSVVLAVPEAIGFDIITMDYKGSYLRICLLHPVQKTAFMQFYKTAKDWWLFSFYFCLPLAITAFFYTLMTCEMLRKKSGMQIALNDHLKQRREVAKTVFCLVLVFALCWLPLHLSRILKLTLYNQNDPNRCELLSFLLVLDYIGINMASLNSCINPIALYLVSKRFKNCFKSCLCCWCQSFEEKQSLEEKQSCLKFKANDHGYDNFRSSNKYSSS
- methodNotes: Compound was tested for binding affinity against Endothelin B receptor
pIC50: −log10 of the molar value.
parameterMeasured: pIC50

Below, 3 molecules whose answers are already recorded.
Problem: Specify measured pIC50 for `Cc1noc(NS(=O)(=O)c2ccsc2-c2ccccc2)c1Br` .
Solution: 4.13

Problem: Using known records, supply pIC50 for `Cc1noc(NS(=O)(=O)c2ccsc2)c1Br`
Solution: < 4.00

Problem: Read off the recorded pIC50 for `Cc1noc(NS(=O)(=O)c2ccccc2)c1Br`
Solution: < 4.00

Okay, next one:
Problem: For `Cc1noc(NS(=O)(=O)c2ccccc2-c2ccccc2)c1Br` , write its pIC50.
Solution: < 4.00

Recorded values, source ChEMBL document CHEMBL1128922.
